# Format: cell-based, human
# RECORDED CONDITIONS: human, Cell viability (%)
Bridge positions count the residues as written; N and C are the ends. Square brackets hold non-standard residues; d marks the D form. Peptide text beside a SMILES is read from it. * marks the point of attachment. Phe(4-guanidino) = N=C(N)Nc1ccc(C[C@H](N)C(=O)O)cc1; Butanoyl(4-guanidino) = N=C(N)NCCCC(=O)*; Propanoyl(3-guanidino) = N=C(N)NCCC(=O)*
MEASURED QUANTITY: viability at 24 h, 3.12 µM (%)
The answer is to be given in %; state only the numeric part.

Past entries and their recorded results:
COMPOUND	MEASURED QUANTITY	MEASUREMENT
CC[C@H](C)[C@H](NC(=O)[C@H](CCCNC(=N)N)NC(=O)[C@H]1CCC(=O)NCCCC[C@H](NC(=O)[C@H](Cc2ccccc2)NC(=O)[C@H](Cc2c[nH]c3ccccc23)NC(=O)[C@@H]2CCCN2C(=O)[C@@H](NC(=O)[C@H](Cc2ccccc2)NC(=O)CCCNC(=N)N)C(C)C)C(=O)N[C@@H](CCCCN)C(=O)N[C@@H](Cc2ccccc2)C(=O)N[C@H](CC(C)C)C(=O)N1)C(=O)N[C@@H](CC(C)C)C(N)=O [Peptide 5, guanidino-GABA-FVPWF[KKFle]RIL] ({Butanoyl(4-guanidino)}-FVPWFKKF[dL][dE]RIL-NH2; lactam 6-10)	viability at 24 h, 3.12 µM	116
CC[C@H](C)[C@H](NC(=O)[C@H](CCCNC(=N)N)NC(=O)[C@H]1CCC(=O)NCCCC[C@H](NC(=O)[C@H](Cc2ccccc2)NC(=O)[C@H](Cc2c[nH]c3ccccc23)NC(=O)[C@@H]2CCCN2C(=O)[C@@H](NC(=O)[C@H](Cc2ccccc2)NC(=O)CCNC(=N)N)C(C)C)C(=O)N[C@@H](CCCCN)C(=O)N[C@@H](Cc2ccccc2)C(=O)N[C@H](CC(C)C)C(=O)N1)C(=O)N[C@@H](CC(C)C)C(N)=O [Peptide 4, guanidino-βAla-FVPWF[KKFle]RIL] ({Propanoyl(3-guanidino)}-FVPWFKKF[dL][dE]RIL-NH2; lactam 6-10)	viability at 24 h, 3.12 µM	98

query: // viability at 24 h, 3.12 µM lookup, key: CC[C@H](C)[C@H](NC(=O)[C@H](CCCNC(=N)N)NC(=O)[C@H]1CCC(=O)NCCCC[C@H](NC(=O)[C@H](Cc2ccccc2)NC(=O)[C@H](Cc2c[nH]c3ccccc23)NC(=O)[C@@H]2CCCN2C(=O)[C@@H](NC(=O)[C@@H](N)Cc2ccccc2)C(C)C)C(=O)N[C@@H](CCCCN)C(=O)N[C@@H](Cc2ccc(NC(=N)N)cc2)C(=O)N[C@H](CC(C)C)C(=O)N1)C(=O)N[C@@H](CC(C)C)C(N)=O [Peptide 10, FVPWF[KK(p-guanidino)Fle]RIL] (H-FVPWFKK[Phe(4-guanidino)][dL][dE]RIL-NH2; lactam 6-10)
result: 98
